assay: Pharmacokinetics of tonabersat after single and multiple dosing, 240 to 400 mg, fasted and fed (MAD and DDI parts); type: in vivo, human; conditions: human, in vivo, oral; single or multiple dosing 240 mg to 400 mg, fed (light, medium or fed); read-out: median tmax
readout.type: Tmax

Problem: What does the record list as Tmax for CC(=O)c1ccc2c(c1)[C@H](NC(=O)c1ccc(F)c(Cl)c1)[C@H](O)C(C)(C)O2 ?
Solution: 3 to 4 h

----------
assay: Pharmacokinetics of tonabersat after single and multiple dosing, 240 to 400 mg, fasted and fed (MAD and DDI parts); assay type: in vivo, human; details: human, in vivo, oral; single dose 240 mg, fasted; read-out: median tmax
readout.type: Tmax (h)
Response body: numeric value in h, unit text excluded.

Problem: What does the record list as Tmax for CC(=O)c1ccc2c(c1)[C@H](NC(=O)c1ccc(F)c(Cl)c1)[C@H](O)C(C)(C)O2 ?
Solution: 16
